Target: T1, Recombinant human IL-18 (human, UniProt Q14116 37-193)
T1 sequence: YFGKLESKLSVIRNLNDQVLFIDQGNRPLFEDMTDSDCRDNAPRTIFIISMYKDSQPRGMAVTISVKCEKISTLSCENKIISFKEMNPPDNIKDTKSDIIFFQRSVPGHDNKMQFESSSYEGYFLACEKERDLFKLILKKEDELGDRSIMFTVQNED
Assay: cell-based or functional assay
This listing pairs binders with measured IC50, inhibition of IFN-γ release, human whole blood, recombinant human IL-18 (7 nM).
experimental-endpoint: IC50, inhibition of IFN-γ release, human whole blood, recombinant human IL-18 (7 nM)

>  <binder>
Recombinant human IL-18 Binding Protein-IgG1 Fc (Fc fusion, UniProt O95998 31-194, looked up, not shown: a dimerising Fc or GST) TPVSQTTTAATASVRSTKDPCPSQPPVFPAAKQCPALEVTWPEVEVPLNGTLSLSCVACSRFPNFSILYWLGNGSFIEHLPGRLWEGSTSRERGSTGTQLCKALVLEQLTPALHSTNFSCVLVDPEQVVQRHVVLAQLWAGLRATLPPTQEALPSSHSSPQQQG

>  <measure-unit>
nM

>  <recorded-number>
5.7

$$$$
>  <binder>
MOR9464_N30L (antibody, human IgG1, lambda, L234A L235A, V domains shown) VH: EVQLVQSGAEVKKPGSSVKVSCKASGGTFLSYAISWVRQAPGQGLEWMGNIIPMTGQTYYAQKFQGRVTITADESTSTAYMELSSLRSEDTAVYYCARAAYHPLVFDNWGQGTLVTVSS VL: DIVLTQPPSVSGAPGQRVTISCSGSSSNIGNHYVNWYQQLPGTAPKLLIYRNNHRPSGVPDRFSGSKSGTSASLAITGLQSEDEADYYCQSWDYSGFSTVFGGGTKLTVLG

>  <measure-unit>
nM

>  <recorded-number>
9.85

$$$$
>  <binder>
MOR9464_N30T (antibody, human IgG1, lambda, L234A L235A, V domains shown) VH: EVQLVQSGAEVKKPGSSVKVSCKASGGTFTSYAISWVRQAPGQGLEWMGNIIPMTGQTYYAQKFQGRVTITADESTSTAYMELSSLRSEDTAVYYCARAAYHPLVFDNWGQGTLVTVSS VL: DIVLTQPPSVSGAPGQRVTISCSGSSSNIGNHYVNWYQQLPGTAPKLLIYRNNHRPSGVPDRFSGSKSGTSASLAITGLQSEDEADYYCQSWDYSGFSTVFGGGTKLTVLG

>  <measure-unit>
nM

>  <recorded-number>
12.5

$$$$
